meta.source: patent US20220306762A1

We begin with a simple list: items and their reported ELISA 1 ug/ml.
target: T1, His-tagged human CD38 (ACRO Biosystems cat #CD8-H5224) (human, UniProt P28907 43-300); assay: ELISA, coated His-CD38
T1 construct: bought recombinant protein with His tag
Measured Metric: ELISA 1 ug/ml

INSERT INTO assay_data (binder, measured) VALUES
  ('40596p1.A5 (scFv, V domains shown, tested as scFv-Fc supernatant) VH: EVQLLESGGGLVQPGGSLRLSCAASGFDFSNNAMSWVRQAPGKGLEYVAGSGWSGSFIFYADSVKGRFTVSRDNSENTLYLQMNSLRAEDTAVYYCAKNPGFGEMDVWGQGTTVTVSS VL: EIVLTQSPGSLSLSPGERATLRCRASQSIGSNLAWYQQKPGQAPSLLIYGASTRAADIPDRFSGSGSGTEFTLTITSLQSEDFAVYYCQQYNSWPPLTFGGGTKVEIK', 1.88),
  ('40566p1.A8 (scFv, V domains shown, tested as scFv-Fc supernatant) VH: DVQLVESGGGVVRPGESLRLSCAASGFTFDNYDMTWVRQAPGEGLEWVSFISSRGTFTYYTDSVKGRFTISRDNSKNTLYLQMNSLRAEDTAIYYCAKDSGEYYFFDYWGLGTLVTVSS VL: EIVMTQSPATLSVSPGERATFSCRASQSVNSKLAWYQQKPGQAPRLLIYGASRRATGIPDRFSGSGSGTEFTLTISSLQSEDFAVYYCQQYYDWPPLTFGGGTKVEIK', 1.87),
  ('40566p1.A7 (scFv, V domains shown, tested as scFv-Fc supernatant) VH: RELVESGGGVVRPGESLRLSCAASGFTFDNYDMTWVRQAPGEGLEWVSFISSRGTFTYYTDSVRGRFTISRDNSKNTLYLEMNSLRAEDTAIYYCAKDSGEYYFFDYWGLGTLVTVSS VL: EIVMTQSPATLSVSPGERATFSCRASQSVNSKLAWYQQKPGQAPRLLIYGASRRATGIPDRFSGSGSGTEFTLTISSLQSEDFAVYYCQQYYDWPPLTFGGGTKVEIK', 1.99);
